molecular target: egg albumin (Gallus gallus); assay: Albumin denaturation assay; format: biochemical, hen; settings: 100 µM; mean ± SD (n = 3); read-out: Percentage inhibition of denaturation of albumin
Sequence (P01012 2-386): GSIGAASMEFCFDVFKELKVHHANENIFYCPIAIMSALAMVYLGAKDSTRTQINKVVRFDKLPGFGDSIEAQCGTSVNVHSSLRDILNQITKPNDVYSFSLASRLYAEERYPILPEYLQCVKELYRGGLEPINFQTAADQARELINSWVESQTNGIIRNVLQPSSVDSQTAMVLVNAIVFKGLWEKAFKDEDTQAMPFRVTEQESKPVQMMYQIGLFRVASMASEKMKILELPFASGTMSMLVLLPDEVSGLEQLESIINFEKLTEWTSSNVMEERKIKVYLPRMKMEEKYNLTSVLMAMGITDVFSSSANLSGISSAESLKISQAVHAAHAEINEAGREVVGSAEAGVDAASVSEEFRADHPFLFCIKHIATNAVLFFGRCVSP
Binary classification by inhibition at 100 µM, with 30% as an inclusive lower bound for yes; all other cases are no.

Given the entry C=CCc1ccc(OCC(=O)Nc2ccccc2)c(OC)c1 , answer whether its inhibition at 100 µM meets or surpasses 30%.
no

Record C=CCc1ccc(OCC(=O)Nc2cccc(C(F)(F)F)c2)c(OC)c1 ; criterion: inhibition at 100 µM no lower than 30%. Met?
yes

Reported inhibition at 100 µM reaches at least 30% for C=CCc1ccc(OCC(=O)Nc2ccc([N+](=O)[O-])cc2)c(OC)c1 ?
no

Check the entry C=CCc1ccc(OCC(=O)Nc2ccccc2C)c(OC)c1 : does inhibition at 100 µM equal or exceed 30%?
no

Does O=C(O)Cc1ccccc1Nc1c(Cl)cccc1Cl [Standard Diclofenac, Diclofenac, reference compound] have a reported inhibition at 100 µM of at least 30%?
yes

Threshold query (inhibition at 100 µM >= 30%) on C=CCc1ccc(OCC(=O)Nc2cccc(Cl)c2)c(OC)c1
yes

Is inhibition at 100 µM at least 30%? Consider C=CCc1ccc(OCC(=O)Nc2ccccc2Cl)c(OC)c1
yes
